- experiment_notes: Cytotoxicity against CHO cells
- Type: toxicity, cell-based, Cricetulus griseus
- condition_set: Chinese hamster
measured_endpoint: pIC50
Worth noting: pIC50 values are minus log10 of concentrations stated in mol/L.

## Task Form field: reported pIC50 of C[C@H]1[C@@H](OCC[N+]2(CCO[C@H]3O[C@@H]4O[C@@]5(C)CC[C@H]6[C@H](C)CC[C@@H]([C@H]3C)[C@@]46OO5)CCN(CCNc3ccnc4cc(Cl)ccc34)CC2)O[C@@H]2O[C@@]3(C)CC[C@H]4[C@H](C)CC[C@@H]1[C@@]24OO3.[Br-]
## Result 4.13

## Task Form field: reported pIC50 of C[C@H]1[C@@H](OCCN(CCCNc2ccnc3cc(Cl)ccc23)CCO[C@H]2O[C@@H]3O[C@@]4(C)CC[C@H]5[C@H](C)CC[C@@H]([C@H]2C)[C@@]35OO4)O[C@@H]2O[C@@]3(C)CC[C@H]4[C@H](C)CC[C@@H]1[C@@]24OO3
## Result 6.17
